Assay: Thermal stability: residual activity after incubation at 60° C. for one hour
Assay type: biochemical
Settings: crude recombinant enzyme; after incubation at 60° C. for 1 hour
MEASURE: Residual activity (%)
The figure you give is taken to be in %; do not add the unit.

INSERT INTO results (molecule, units, endpoint_result) VALUES
  ('Ketose 3-epimerase mutant 11: amino acid-substituted mutant of SEQ ID NO: 1 (protein, Arthrobacter histidinolovorans) MKIGCHGLVWTGRFDAEGIRYSVQKTKEAGFDLIEFPLMDPFSFDVATAKSALAEHGLTASASLGLSEATDVSSEDPAIVKAGEELLNRALDVLAELGATDFCGVIYSAMKKYMEPATEQGLSNSKAAIGRVVDRAAGLGINVSLEVVNRYETNVLNTGRQALSYLSDVKRPNLGVHLDTYHMNIEESDMFSPVLDTAEALKYVHIGESHRGYLGTGSVDFDNFFKALGRIGYDGPVVFESFSSAVVAPDLSRMLGIWRNLWADNEELGAHANAFIRDKLTAIKTIELH', '%', 68.6),
  ('Ketose 3-epimerase mutant 36: amino acid-substituted mutant of SEQ ID NO: 1 (protein, Arthrobacter histidinolovorans) MKIGCHGLVWTGRFDAEGIRYSVQKTKEAGFDLIEFPLMDPFSFDVATAKSALAEHGLTASASLGLSEATDVSSEDPAIVKAGEELLNRALDVVAELGATDFCGVIYSAMKKYMEPATEQGLSNSKAAVGRVVDRAAGLGINVSLEVVNRYETNVLNTGRQALSYLSDVKRPNLGVHLDTYHMNIEESDMFSPVLDTAEALKYVHIGESHRGYLGTGSVDFDNFFKALGRIGYDGPVVFESFSSAVVAPDLSRMLGIWRNLWADNEELGAHANAFIRDKLTAIKTIELH', '%', 57.0),
  ('Ketose 3-epimerase mutant 32: amino acid-substituted mutant of SEQ ID NO: 1 (protein, Arthrobacter histidinolovorans) MKIGCHGLVWTGRFDAEGIRYSVQKTKEAGFDLIEFPLMDPFSFDVATAKSALAEHGLTASASLGLSEATDVSSEDSAIVKAGEELLNRALDVLAELGATDFCGVIYSAMKKYMEPATEQGLSNSKAAVGRVVDRAAGLGINVSLEVVNRYETNVLNTGRQALSYLSDVKRPNLGVHLDTYHMNIEESDMFSPVLDTAEALKYVHIGESHRGYLGTGSVDFDNFFKALGRIGYDGPVVFESFSSAVVAPDLSRMLGIWRNLWADNEELGAHANAFIRDKLTAIKTIELH', '%', 39.9);

Query: State, in one line, measured Residual activity (%) of Ketose 3-epimerase mutant 22: amino acid-substituted mutant of SEQ ID NO: 1 (protein, Arthrobacter histidinolovorans) MKIGCHGLVWTGRFDAEGIRYSVQKTKEAGFDLIEFPLMDPFSFDVATAKSALAEHGLSVSASLGLSEATDVSSEDSAIVKAGEELLNRALDVVAELGATEFCGVIYSSMKKYMEPATEQGLSNSKAAIGRVVDRAAGLGINVALEVVNRYETNVLNTGRQALSYLQDVKRPNLGVHLDTYHMNIEESDMFSPVLDTAEVLKYVHIGESHRGYLGTGNVDFDNFFKALGRIGYDGPVVFESFSSAVVAPDLSRMLGIWRNLWADNEELGAHANAFIRDKLTAIKTIELH
Response: 113.5
